// MCV lookup, one value per entry
- Species on record: Rattus norvegicus
- experiment_summary: Open TG-GATES - Regimen: Single
- Format: toxicity, organism-based, Sprague-Dawley
- Parameters: regimen Single, gender Male, age 6 weeks
- assay_setup: in vivo, po, 0 mg/kg, 24 h, tissue Blood, route gavage, dose level Control
The reply should be a number in fL, with the unit left off.

The examples below pair each entry with its known result.
[
  {
    "compound": "Cc1cccc(C)c1OCC(C)N (stereo not given)",
    "readout_value": 63.6
  },
  {
    "compound": "C[C@H]1C(=O)O[C@@H]2CCN3CC=C(COC(=O)[C@](C)(O)[C@]1(C)O)[C@H]23",
    "readout_value": 61.1
  },
  {
    "compound": "OCCN1CCN(CCCN2c3ccccc3Sc3ccc(C(F)(F)F)cc32)CC1",
    "readout_value": 67.1
  },
  {
    "compound": "Cc1ccc2cc3c(ccc4ccccc43)c3c2c1CC3",
    "readout_value": 62.7
  }
]

Consider the record given below.
Data request: Recorded MCV for C=C(C)[C@H]1Cc2c(ccc3c2O[C@@H]2COc4cc(OC)c(OC)cc4[C@@H]2C3=O)O1 , please?
Data returned: 65.9

----------
- Species: Rattus norvegicus
- experiment_summary: Open TG-GATES - Regimen: Single
- Format: toxicity, organism-based, Sprague-Dawley
- Set-up: regimen Single, gender Male, age 6 weeks
- assay_setup: in vivo, po, 0 mg/kg, 24 h, tissue Plasma, route gavage, dose level Control
reported_metric: TC (mg/dL)
The reply should be a number in mg/dL, with the unit left off.

The examples below pair each entry with its known result.
[
  {
    "compound": "C[C@H]1O[C@H](O[C@H]2[C@H](O)[C@@H](O)[C@@H](O[C@H]3[C@H](O)[C@@H](O)C(O)O[C@@H]3CO)O[C@@H]2CO)[C@H](O)[C@@H](O)[C@@H]1N[C@H]1C=C(CO)[C@@H](O)[C@H](O)[C@H]1O (some centres undefined)",
    "readout_units": "mg/dL",
    "TC": 78
  },
  {
    "compound": "O=[N+]([O-])c1ccc(O)c([N+](=O)[O-])c1",
    "readout_units": "mg/dL",
    "TC": 84
  },
  {
    "compound": "OCCN1CCN(CCCN2c3ccccc3Sc3ccc(C(F)(F)F)cc32)CC1",
    "readout_units": "mg/dL",
    "TC": 80
  }
]

Data request: Recorded TC for C=C(C)[C@H]1Cc2c(ccc3c2O[C@@H]2COc4cc(OC)c(OC)cc4[C@@H]2C3=O)O1 , please?
Data returned: 81.2

Data request: Can you check C[C@H]1C(=O)O[C@@H]2CCN3CC=C(COC(=O)[C@](C)(O)[C@]1(C)O)[C@H]23 next?
Data returned: 78.2

Data request: Can you check CCOC(=O)C(C)(C)Oc1ccc(Cl)cc1 [CLOFIBRATE] next?
Data returned: 68.4

Data request: Can you check Cn1cc[nH]c1=S next?
Data returned: 77.8

Data request: Can you check Cc1cccc(C)c1OCC(C)N (centres undefined) next?
Data returned: 70

Data request: Can you check Cc1ccc2cc3c(ccc4ccccc43)c3c2c1CC3 next?
Data returned: 82

----------
- Species on record: Rattus norvegicus
- experiment_summary: Open TG-GATES - Regimen: Single
- Assay type: toxicity, organism-based, Sprague-Dawley
- Design: regimen Single, gender Male, age 6 weeks
- assay_setup: in vivo, po, 0 mg/kg, 6 h, tissue Blood, route gavage, dose level Control
reported_metric: MCV (fL)
The reply should be a number in fL, with the unit left off.

[
  {
    "molecule": "Cn1cc[nH]c1=S [METHIMAZOLE]",
    "MCV / fL": 63.6
  },
  {
    "molecule": "C[C@H]1C(=O)O[C@@H]2CCN3CC=C(COC(=O)[C@](C)(O)[C@]1(C)O)[C@H]23 [MONOCROTALINE]",
    "MCV / fL": 63.2
  }
]

Data request: Recorded MCV for Cc1cccc(C)c1OCC(C)N (centres undefined) [MEXILETINE] , please?
Data returned: 63.1

Data request: Can you check OCCN1CCN(CCCN2c3ccccc3Sc3ccc(C(F)(F)F)cc32)CC1 [FLUPHENAZINE] next?
Data returned: 65.1

Data request: Can you check C[C@H]1O[C@H](O[C@H]2[C@H](O)[C@@H](O)[C@@H](O[C@H]3[C@H](O)[C@@H](O)C(O)O[C@@H]3CO)O[C@@H]2CO)[C@H](O)[C@@H](O)[C@@H]1N[C@H]1C=C(CO)[C@@H](O)[C@H](O)[C@H]1O (some centres undefined) [ACARBOSE] next?
Data returned: 64.9

Data request: Can you check O=[N+]([O-])c1ccc(O)c([N+](=O)[O-])c1 [2,4-DINITROPHENOL] next?
Data returned: 63.9

----------
- Species on record: Rattus norvegicus
- experiment_summary: Open TG-GATES - Regimen: Single
- Type: toxicity, organism-based, Sprague-Dawley
- Set-up: regimen Single, gender Male, age 6 weeks
- assay_setup: in vivo, po, 0 mg/kg, 6 h, tissue Blood, route gavage, dose level Control
// Plat lookup, one value per entry
The reply should be a number in x10_4/uL, with the unit left off.

[
  {
    "compound": "C[C@H]1O[C@H](O[C@H]2[C@H](O)[C@@H](O)[C@@H](O[C@H]3[C@H](O)[C@@H](O)C(O)O[C@@H]3CO)O[C@@H]2CO)[C@H](O)[C@@H](O)[C@@H]1N[C@H]1C=C(CO)[C@@H](O)[C@H](O)[C@H]1O (some centres undefined)",
    "Plat [x10_4/uL]": 125.4
  },
  {
    "compound": "O=[N+]([O-])c1ccc(O)c([N+](=O)[O-])c1",
    "Plat [x10_4/uL]": 127
  },
  {
    "compound": "Cc1ccc2cc3c(ccc4ccccc43)c3c2c1CC3",
    "Plat [x10_4/uL]": 124.5
  }
]

Data request: Recorded Plat for CCOC(=O)C(C)(C)Oc1ccc(Cl)cc1 [CLOFIBRATE] , please?
Data returned: 131.5

Data request: Can you check Cn1cc[nH]c1=S next?
Data returned: 117.7

Data request: Can you check Cc1cccc(C)c1OCC(C)N (centres undefined) next?
Data returned: 113.7

Data request: Can you check OCCN1CCN(CCCN2c3ccccc3Sc3ccc(C(F)(F)F)cc32)CC1 next?
Data returned: 108.7

Data request: Can you check C[C@H]1C(=O)O[C@@H]2CCN3CC=C(COC(=O)[C@](C)(O)[C@]1(C)O)[C@H]23 next?
Data returned: 112.4

Data request: Can you check C=C(C)[C@H]1Cc2c(ccc3c2O[C@@H]2COc4cc(OC)c(OC)cc4[C@@H]2C3=O)O1 next?
Data returned: 122.2

----------
- Species: Rattus norvegicus
- experiment_summary: Open TG-GATES - Regimen: Single
- Type: toxicity, organism-based, Sprague-Dawley
- Design: regimen Single, gender Male, age 6 weeks
- assay_setup: in vivo, po, 0 mg/kg, 6 h, tissue Blood, route gavage, dose level Control
// Eos lookup, one value per entry
The reply should be a number in %, with the unit left off.

The examples below pair each entry with its known result.
[
  {
    "compound": "Cc1cccc(C)c1OCC(C)N (stereo not given) [MEXILETINE]",
    "Eos (%)": 0.8
  },
  {
    "compound": "OCCN1CCN(CCCN2c3ccccc3Sc3ccc(C(F)(F)F)cc32)CC1 [FLUPHENAZINE]",
    "Eos (%)": 1
  },
  {
    "compound": "C=C(C)[C@H]1Cc2c(ccc3c2O[C@@H]2COc4cc(OC)c(OC)cc4[C@@H]2C3=O)O1 [ROTENONE]",
    "Eos (%)": 1
  }
]

Consider the record given below.
Data request: Recorded Eos for Cn1cc[nH]c1=S [METHIMAZOLE] , please?
Data returned: 0.8

----------
- Species on record: Rattus norvegicus
- experiment_summary: Open TG-GATES - Regimen: Daily Repeat
- Format: toxicity, organism-based, Sprague-Dawley
- Parameters: regimen Daily Repeat, gender Male, age 6 weeks
- assay_setup: in vivo, po, 0 mg/kg, 72 h, tissue Blood, route gavage, dose level Control, time 3 day
reported_metric: Ht (%)
The reply should be a number in %, with the unit left off.

The examples below pair each entry with its known result.
[
  {
    "compound": "C[C@H]1O[C@H](O[C@H]2[C@H](O)[C@@H](O)[C@@H](O[C@H]3[C@H](O)[C@@H](O)C(O)O[C@@H]3CO)O[C@@H]2CO)[C@H](O)[C@@H](O)[C@@H]1N[C@H]1C=C(CO)[C@@H](O)[C@H](O)[C@H]1O (some centres undefined) [ACARBOSE]",
    "Ht / %": 41.3
  },
  {
    "compound": "CCOC(=O)C(C)(C)Oc1ccc(Cl)cc1 [CLOFIBRATE]",
    "Ht / %": 39.5
  },
  {
    "compound": "Cc1cccc(C)c1OCC(C)N (centres undefined) [MEXILETINE]",
    "Ht / %": 39.4
  }
]

Consider the record given below.
Data request: Recorded Ht for O=[N+]([O-])c1ccc(O)c([N+](=O)[O-])c1 [2,4-DINITROPHENOL] , please?
Data returned: 38.3
